# System: 786-O
# Test Summary: Euclidean distance of Cell Painting phenotypic profile (signed KS, 77 features) to DMSO centroid (dimensionless distance); 5 or 10 uM (library dependent); higher = stronger phenotypic change vs DMSO (phenoactivity)
# Condition Parameters: 48 h
Where a name gives a salt, the structure may show the parent alone.
Measurement Name: Euclidean distance

Compound	Measurement Name	Assay Result
N#CC(c1ccc(Cl)cc1)c1c(Cl)cc(-n2ncc(=O)[nH]c2=O)cc1Cl (stereo not drawn)	Euclidean distance	1.07
CN[C@@H](C)C(=O)N[C@H]1CN(C(=O)CC(C)C)CC[C@H]2CC[C@@H](C(=O)NC(c3ccccc3)c3ccccc3)N2C1=O	Euclidean distance	1.44
O=c1[nH]nc2c3c(cccc13)N=C(CN1Cc3ccccc3C1)N2	Euclidean distance	0.985
Nc1nc(Nc2ccc(S(N)(=O)=O)cc2)nn1C(=O)c1c(F)cccc1F	Euclidean distance	1.27
O=C(NOCC1CC1)c1ccc(F)c(F)c1Nc1ccc(I)cc1Cl	Euclidean distance	2.48
Nc1cc(C(F)(F)F)c(-c2cc(N3CCOCC3)nc(N3CCOCC3)n2)cn1	Euclidean distance	2.55
CC(C)C(=O)Oc1ccc(CO)cc1[C@H](CCN(C(C)C)C(C)C)c1ccccc1 [Fesoterodine Fumarate]	Euclidean distance	0.902
CC(=O)Oc1ccc(C(c2ccc(OC(C)=O)cc2)c2ccccn2)cc1	Euclidean distance	1.2
